Source of measurements: ChEMBL document CHEMBL6153063

Give measured IC50 for each item. Keep answers brief.
# assay_info: Inhibition of cell viability in human Gilteritinib-resistant MOLM-14 cells expressing FLT3 F691L mutant incubated for 48 hrs by Alamar blue assay
# Format: functional, cell-based
# run_parameters: Gilteritinib-resistant MOLM-14, 48 h
Numbers only, in µM.

compound_string	IC50 (µM)
CC1(C)CCC(CN2CCN(c3ccc(C(=O)NS(=O)(=O)c4ccc(NCC5CCOCC5)c([N+](=O)[O-])c4)c(Oc4cnc5[nH]ccc5c4)c3)CC2)=C(c2ccc(Cl)cc2)C1	2.01

Each of the following entries comes with a recorded value; kindly state IC50 for each.
1. CCc1nc(C(N)=O)c(Nc2ccc(N3CCC(N4CCN(C)CC4)CC3)c(OC)c2)nc1NC1CCOCC1
2. CCc1nc(C(N)=O)c(Nc2ccc(N3CCN(C(=O)CNc4ccc(S(=O)(=O)NC(=O)c5ccc(N6CCN(CC7=C(c8ccc(Cl)cc8)CC(C)(C)CC7)CC6)cc5Oc5cnc6[nH]ccc6c5)cc4[N+](=O)[O-])CC3)c(OC)c2)nc1NC1CCOCC1

1. 0.128
2. 1.7
